Hi there, I'd appreciate the recorded IC50 for every entry that follows.
- Experimental Target: testosterone (T) production in NCI-H295R cells (Homo sapiens)
- Construct: testosterone measured by LC-MS/MS as downstream steroid
- Assay Name: H295R Steroid Biosynthesis Inhibition Assay - inhibition of testosterone (T) production in NCI-H295R cells
- Condition Details: 48 h, LC-MS/MS, read-out: Inh. of T IC50

Which IC50 is listed for C[C@]1(O)CC[C@H](c2cc3oc(CN4Cc5ccccc5C4)cc(=O)c3o2)CC1 ? ≤ 0.04 µM

Try the compound O=c1cc(CN2Cc3ccccc3C2)oc2cc([C@H]3CC[C@@]4(O)CC4C3)oc12 (some centres unmarked) ≤ 0.04 µM

And for CS(=O)(=O)N1CCC(c2cnc3cc(CN4Cc5ccc(C(F)(F)F)cc5C4)ccc3n2)CC1 ? ≤ 0.04 µM

Please do the same for Cc1oc(CN2Cc3ccccc3C2)cc(=O)c1OCC1CCN(S(C)(=O)=O)CC1 as well. 0.041 to 0.1 µM

Subsequent entry: CS(=O)(=O)N1CCC(c2ccc3cc(CN4Cc5ccccc5C4)ccc3c2)CC1 ≤ 0.04 µM

Another compound to check: CS(=O)(=O)N1CCC(c2ccc3cc(CN4Cc5ccccc5C4)ccc3n2)CC1 ≤ 0.04 µM

Try CS(=O)(=O)N[C@H]1CC[C@H](c2cc3oc(CN4Cc5ccccc5C4)cc(=O)c3o2)CC1 next. ≤ 0.04 µM

Another compound: CS(=O)(=O)N1CCC(c2cnc3cc(CN4Cc5ccc(F)cc5C4)ccc3n2)CC1 ≤ 0.04 µM
